Recorded values, source patent US20090118184A1.

# experimental target: T1, factor VIIIa A1/A3C1C2 dimer, wild type (human, UniProt P00451 20-391; P00451 1709-2351)
# T1 sequence 1: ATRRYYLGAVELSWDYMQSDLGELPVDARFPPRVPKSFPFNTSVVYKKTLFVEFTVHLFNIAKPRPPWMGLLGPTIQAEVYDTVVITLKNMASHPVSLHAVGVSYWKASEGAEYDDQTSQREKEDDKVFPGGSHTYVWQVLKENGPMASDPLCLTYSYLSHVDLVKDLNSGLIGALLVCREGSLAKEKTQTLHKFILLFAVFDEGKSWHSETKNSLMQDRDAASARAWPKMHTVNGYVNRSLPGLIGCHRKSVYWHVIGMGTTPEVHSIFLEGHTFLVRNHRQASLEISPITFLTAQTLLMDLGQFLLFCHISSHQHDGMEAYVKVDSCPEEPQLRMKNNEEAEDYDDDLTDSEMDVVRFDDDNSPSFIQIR
# T1 sequence 2: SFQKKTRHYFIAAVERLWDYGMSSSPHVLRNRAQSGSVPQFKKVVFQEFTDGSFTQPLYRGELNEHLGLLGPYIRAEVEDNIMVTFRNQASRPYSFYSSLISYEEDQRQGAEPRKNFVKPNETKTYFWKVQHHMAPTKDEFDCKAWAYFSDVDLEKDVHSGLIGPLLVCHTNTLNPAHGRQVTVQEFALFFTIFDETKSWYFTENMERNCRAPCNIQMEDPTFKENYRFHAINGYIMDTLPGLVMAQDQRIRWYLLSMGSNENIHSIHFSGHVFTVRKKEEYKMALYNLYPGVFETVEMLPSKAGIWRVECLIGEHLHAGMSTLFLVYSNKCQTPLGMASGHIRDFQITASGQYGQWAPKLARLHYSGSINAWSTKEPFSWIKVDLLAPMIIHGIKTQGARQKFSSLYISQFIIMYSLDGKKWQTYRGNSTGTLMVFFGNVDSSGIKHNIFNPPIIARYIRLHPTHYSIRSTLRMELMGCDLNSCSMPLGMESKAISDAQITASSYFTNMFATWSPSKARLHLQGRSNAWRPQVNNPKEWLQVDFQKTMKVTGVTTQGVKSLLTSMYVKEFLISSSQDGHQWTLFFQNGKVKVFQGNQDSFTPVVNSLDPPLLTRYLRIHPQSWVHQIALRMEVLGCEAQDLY
# experiment notes: cell-based or functional assay
readout kind: Decay rate relative to wild type, Factor VIIIa (1.5 nM, factor IXa absent)

binder	observed measurement
factor VIIIa A2 subunit, D519A and E665V (other) SVAKKHPKTWVHYIAAEEEDWDYAPLVLAPDDRSYKSQYLNNGPQRIGRKYKKVRFMAYTDETFKTREAIQHESGILGPLLYGEVGDTLLIIFKNQASRPYNIYPHGITDVRPLYSRRLPKGVKHLKDFPILPGEIFKYKWTVTVEAGPTKSDPRCLTRYYSSFVNMERDLASGLIGPLLICYKESVDQRGNQIMSDKRNVILFSVFDENRSWYLTENIQRFLPNPAGVQLEDPEFQASNIMHSINGYVFDSLQLSVCLHEVAYWYILSIGAQTDFLSVFFSGYTFKHKMVYVDTLTLFPFSGETVFMSMENPGLWILGCHNSDFRNRGMTALLKVSSCDKNTGDYYEDSYEDISAYLLSKNNAIEPR	0.16 relative to wild type
factor VIIIa A2 subunit, Asp519Val (other) SVAKKHPKTWVHYIAAEEEDWDYAPLVLAPDDRSYKSQYLNNGPQRIGRKYKKVRFMAYTDETFKTREAIQHESGILGPLLYGEVGDTLLIIFKNQASRPYNIYPHGITDVRPLYSRRLPKGVKHLKDFPILPGEIFKYKWTVTVEVGPTKSDPRCLTRYYSSFVNMERDLASGLIGPLLICYKESVDQRGNQIMSDKRNVILFSVFDENRSWYLTENIQRFLPNPAGVQLEDPEFQASNIMHSINGYVFDSLQLSVCLHEVAYWYILSIGAQTDFLSVFFSGYTFKHKMVYEDTLTLFPFSGETVFMSMENPGLWILGCHNSDFRNRGMTALLKVSSCDKNTGDYYEDSYEDISAYLLSKNNAIEPR	0.6 relative to wild type
factor VIIIa A2 subunit, Glu665Ala (other) SVAKKHPKTWVHYIAAEEEDWDYAPLVLAPDDRSYKSQYLNNGPQRIGRKYKKVRFMAYTDETFKTREAIQHESGILGPLLYGEVGDTLLIIFKNQASRPYNIYPHGITDVRPLYSRRLPKGVKHLKDFPILPGEIFKYKWTVTVEDGPTKSDPRCLTRYYSSFVNMERDLASGLIGPLLICYKESVDQRGNQIMSDKRNVILFSVFDENRSWYLTENIQRFLPNPAGVQLEDPEFQASNIMHSINGYVFDSLQLSVCLHEVAYWYILSIGAQTDFLSVFFSGYTFKHKMVYADTLTLFPFSGETVFMSMENPGLWILGCHNSDFRNRGMTALLKVSSCDKNTGDYYEDSYEDISAYLLSKNNAIEPR	0.6 relative to wild type
factor VIIIa A2 subunit, D519V and E665V (other) SVAKKHPKTWVHYIAAEEEDWDYAPLVLAPDDRSYKSQYLNNGPQRIGRKYKKVRFMAYTDETFKTREAIQHESGILGPLLYGEVGDTLLIIFKNQASRPYNIYPHGITDVRPLYSRRLPKGVKHLKDFPILPGEIFKYKWTVTVEVGPTKSDPRCLTRYYSSFVNMERDLASGLIGPLLICYKESVDQRGNQIMSDKRNVILFSVFDENRSWYLTENIQRFLPNPAGVQLEDPEFQASNIMHSINGYVFDSLQLSVCLHEVAYWYILSIGAQTDFLSVFFSGYTFKHKMVYVDTLTLFPFSGETVFMSMENPGLWILGCHNSDFRNRGMTALLKVSSCDKNTGDYYEDSYEDISAYLLSKNNAIEPR	0.14 relative to wild type
